Where do the numbers come from? From patent US9738600B2.

The entries below are paired with their reported IC50.
molecular target: RORγ (Homo sapiens, UniProt P51449); experiment: RORγ GAL4 reporter gene assay; conditions: mean pIC50, inhibition of RORγ (GAL4-RORγ-LBD) in 293FT cells, luciferase readout, overnight incubation
Sequence (P51449 269-508 limits assumed): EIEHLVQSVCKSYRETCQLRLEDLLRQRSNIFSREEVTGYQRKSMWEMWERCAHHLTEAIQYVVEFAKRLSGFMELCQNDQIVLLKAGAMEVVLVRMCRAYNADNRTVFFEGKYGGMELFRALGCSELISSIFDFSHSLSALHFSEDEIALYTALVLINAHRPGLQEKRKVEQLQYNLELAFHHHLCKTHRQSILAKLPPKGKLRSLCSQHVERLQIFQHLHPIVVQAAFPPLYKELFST

Compound: CC(C)OC(c1ccc(NC(=O)Cc2ccc(S(=O)(=O)CC3CC3)cc2)cc1)(C(F)(F)F)C(F)(F)F [Example 51]
Target Or Test System: RORγ (Homo sapiens, UniProt P51449)
IC50: ≤ 100 nM
--
Compound: CC(C)(C)CC(O)(c1ccc(NC(=O)Cc2ccc(S(=O)(=O)CC3CC3)cc2)cc1)C(F)(F)F (stereo not drawn) [Example 82]
Target Or Test System: RORγ (Homo sapiens, UniProt P51449)
IC50: ≤ 10 nM
--
Compound: CCCCC(O)(c1ccc(NC(=O)Cc2ccc(S(=O)(=O)CC)cc2)cc1)C(F)(F)F (stereo not drawn) [Example 72]
Target Or Test System: RORγ (Homo sapiens, UniProt P51449)
IC50: ≤ 1000 nM
--
Compound: O=C(Cc1ccc(S(=O)(=O)CC2CC2)cc1)Nc1ccc(C(O)(Cc2ccccc2)C(F)(F)F)cc1 (stereo not drawn) [Example 87]
Target Or Test System: RORγ (Homo sapiens, UniProt P51449)
IC50: ≤ 100 nM
--
Compound: CC(C)CCCC(O)(c1ccc(NC(=O)Cc2ccc(S(=O)(=O)CC3CC3)cc2)cc1)C(F)(F)F (stereo not drawn) [Example 108]
Target Or Test System: RORγ (Homo sapiens, UniProt P51449)
IC50: ≤ 100 nM
--
Compound: CCS(=O)(=O)c1ccc(CC(=O)Nc2ccc(C(O)(CC(C)C)C(F)(F)F)cc2)cc1 (stereo not drawn) [Example 66]
Target Or Test System: RORγ (Homo sapiens, UniProt P51449)
IC50: ≤ 100 nM
--
Compound: CCS(=O)(=O)c1ccc(CC(=O)Nc2ccc(C(O)(C(F)(F)F)C(F)(F)F)c(F)c2C)cc1 [Example 15]
Target Or Test System: RORγ (Homo sapiens, UniProt P51449)
IC50: ≤ 1000 nM
--
Compound: O=C(Cc1ccc(S(=O)(=O)CC2CC2)cc1)Nc1ccc(C(OCc2ccccc2)(C(F)(F)F)C(F)(F)F)cc1 [Example 59]
Target Or Test System: RORγ (Homo sapiens, UniProt P51449)
IC50: ≤ 100 nM
--
Compound: CNS(=O)(=O)c1ccc(CC(=O)Nc2ccc(C(O)(C(F)(F)F)C(F)(F)F)cc2)cc1 [Example 6]
Target Or Test System: RORγ (Homo sapiens, UniProt P51449)
IC50: ≤ 1000 nM
--
Compound: CCS(=O)(=O)c1ccc(CC(=O)Nc2ccc(C(OCC(F)(F)F)(C(F)(F)F)C(F)(F)F)cc2)cc1 [Example 112]
Target Or Test System: RORγ (Homo sapiens, UniProt P51449)
IC50: ≤ 1000 nM
--
Compound: CCOC(c1ccc(NC(=O)Cc2ccc(S(=O)(=O)CC3CC3)cc2)cc1)(C(F)(F)F)C(F)(F)F [Example 53]
Target Or Test System: RORγ (Homo sapiens, UniProt P51449)
IC50: ≤ 100 nM
--
Compound: CCS(=O)(=O)c1ccc(C(C)C(=O)Nc2ccc(C(O)(C(F)(F)F)C(F)(F)F)cc2)cc1 (stereo not drawn) [Example 5]
Target Or Test System: RORγ (Homo sapiens, UniProt P51449)
IC50: ≤ 1000 nM
--
Compound: CCS(=O)(=O)c1ccc(CC(=O)Nc2c(C)cc(C(O)(C(F)(F)F)C(F)(F)F)cc2C)cc1 [Example 23]
Target Or Test System: RORγ (Homo sapiens, UniProt P51449)
IC50: ≤ 1000 nM
--
Compound: CCS(=O)(=O)c1ccc(CC(=O)Nc2ccc(C(O)(C(F)(F)F)C(F)(F)F)cc2C)cc1 [Example 31]
Target Or Test System: RORγ (Homo sapiens, UniProt P51449)
IC50: ≤ 1000 nM
--
Compound: CCS(=O)(=O)c1ccc(CC(=O)Nc2ccc(C(O)(C3CCCC3)C(F)(F)F)cc2)cc1 (stereo not drawn) [Example 85]
Target Or Test System: RORγ (Homo sapiens, UniProt P51449)
IC50: ≤ 1000 nM
--
Compound: O=C(Cc1ccc(S(=O)(=O)CC2CC2)cc1)Nc1ccc(C(O)(C(F)(F)F)C(F)(F)F)c(F)c1 [Example 45]
Target Or Test System: RORγ (Homo sapiens, UniProt P51449)
IC50: ≤ 10 nM
--
Compound: Cc1c(NC(=O)Cc2ccc(S(=O)(=O)NC3CC3)cc2)ccc(C(O)(C(F)(F)F)C(F)(F)F)c1F [Example 26]
Target Or Test System: RORγ (Homo sapiens, UniProt P51449)
IC50: ≤ 1000 nM
--
Compound: CCC(O)(c1ccc(NC(=O)Cc2ccc(S(=O)(=O)CC3CC3)cc2)cc1)C(F)(F)F (stereo not drawn) [Example 83]
Target Or Test System: RORγ (Homo sapiens, UniProt P51449)
IC50: ≤ 10 nM
--
Compound: O=C(Cc1ccc(S(=O)(=O)CC2CC2)cc1)Nc1ccc(C(O)(C2CC2)C2CC2)cc1 [Example 106]
Target Or Test System: RORγ (Homo sapiens, UniProt P51449)
IC50: ≤ 100 nM
--
Compound: O=C(Cc1ccc(S(=O)(=O)CC2CC2)cc1)Nc1ccc(C(O)(C2CC2)C(F)(F)F)cc1 (stereo not drawn) [Example 67]
Target Or Test System: RORγ (Homo sapiens, UniProt P51449)
IC50: ≤ 100 nM
--
Compound: O=C(Cc1cccc(S(=O)(=O)NC2CC2)c1)Nc1ccc(C(O)(C(F)(F)F)C(F)(F)F)cc1 [Example 12]
Target Or Test System: RORγ (Homo sapiens, UniProt P51449)
IC50: ≤ 1000 nM
--
Compound: O=C(Cc1ccc(S(=O)(=O)NC2CC2)cc1)Nc1ccc(C(O)(C(F)(F)F)C(F)(F)F)c(F)c1 [Example 33]
Target Or Test System: RORγ (Homo sapiens, UniProt P51449)
IC50: ≤ 100 nM
--
Compound: O=C(Cc1ccc(S(=O)(=O)CC2CC2)cc1)Nc1ccc(C(OCC(F)(F)F)(C(F)(F)F)C(F)(F)F)cc1 [Example 113]
Target Or Test System: RORγ (Homo sapiens, UniProt P51449)
IC50: ≤ 100 nM
--
Compound: Cc1cc(C(O)(C(F)(F)F)C(F)(F)F)ccc1NC(=O)Cc1ccc(S(=O)(=O)NC2CC2)cc1 [Example 34]
Target Or Test System: RORγ (Homo sapiens, UniProt P51449)
IC50: ≤ 1000 nM
--
Compound: O=C(Cc1ccc(S(=O)(=O)CC2CC2)cc1)Nc1ccc(C(O)(CC2CCCC2)C(F)(F)F)cc1 (stereo not drawn) [Example 68]
Target Or Test System: RORγ (Homo sapiens, UniProt P51449)
IC50: ≤ 100 nM
--
Compound: Cc1cc(NC(=O)Cc2ccc(S(=O)(=O)CC3CC3)cc2)ccc1C(O)(C(F)(F)F)C(F)(F)F [Example 44]
Target Or Test System: RORγ (Homo sapiens, UniProt P51449)
IC50: ≤ 10 nM
--
Compound: CCCC(O)(c1ccc(NC(=O)Cc2ccc(S(=O)(=O)NC3CC3)cc2)cc1)C(F)(F)F (stereo not drawn) [Example 80]
Target Or Test System: RORγ (Homo sapiens, UniProt P51449)
IC50: ≤ 1000 nM
--
Compound: CC(C)CCC(O)(c1ccc(NC(=O)Cc2ccc(S(=O)(=O)CC3CC3)cc2)cc1)C(F)(F)F (stereo not drawn) [Example 104]
Target Or Test System: RORγ (Homo sapiens, UniProt P51449)
IC50: ≤ 100 nM
--
Compound: O=C(Cc1ccc(S(=O)(=O)CC2CC2)cc1)Nc1ccc(C(O)(C(F)(F)F)C(F)(F)F)nc1 [Example 110]
Target Or Test System: RORγ (Homo sapiens, UniProt P51449)
IC50: ≤ 1000 nM
--
Compound: CCS(=O)(=O)c1ccc(CC(=O)Nc2ccc(C(O)(c3ccccc3)C(F)(F)F)cc2)cc1 (stereo not drawn) [Example 97]
Target Or Test System: RORγ (Homo sapiens, UniProt P51449)
IC50: ≤ 1000 nM
